Tested on: MCF10A
protocol: 5+ nucleoli phenotype percent effect (relative to siNT 0% and siKIF11 100%); higher = more cells with five or more nucleoli
setup conditions: 20 nM; 72 h
readout kind: 5+ nucleoli phenotype percent effect (%)
Give the quantity in %, number only.

{"primary sequence": "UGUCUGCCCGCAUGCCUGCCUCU [hsa-miR-346]", "5+ nucleoli phenotype percent effect [%]": -26.4}
{"primary sequence": "UUGGGACAUACUUAUGCUAAA [hsa-miR-1302]", "5+ nucleoli phenotype percent effect [%]": -1.97}
{"primary sequence": "AGGGGUGCUAUCUGUGAUUGA [hsa-miR-342-5p]", "5+ nucleoli phenotype percent effect [%]": -43.4}
{"primary sequence": "CAGAGAAUUGUUUAAUC [hsa-miR-3123]", "5+ nucleoli phenotype percent effect [%]": 54.9}
{"primary sequence": "UAUUCAUUUAUCCCCAGCCUACA [hsa-miR-664a-3p]", "5+ nucleoli phenotype percent effect [%]": 26}
{"primary sequence": "UAGGACACAUGGUCUACUUCU [hsa-miR-1197]", "5+ nucleoli phenotype percent effect [%]": -9.77}

Can you look up 5+ nucleoli phenotype percent effect on MCF10A for CAGGGCAGGGAAGGUGGGAGAG [hsa-miR-6879-5p] ?
36.6

Record: UUCAAGUAAUUCAGGUG [hsa-miR-1297]
45.2
